Target: CAMK1G (1-320) (Homo sapiens, UniProt Q96NX5)
Construct: made in house; host or cells: E. coli BL21 (DE3) pLysS
Sequence (Q96NX5 1-320): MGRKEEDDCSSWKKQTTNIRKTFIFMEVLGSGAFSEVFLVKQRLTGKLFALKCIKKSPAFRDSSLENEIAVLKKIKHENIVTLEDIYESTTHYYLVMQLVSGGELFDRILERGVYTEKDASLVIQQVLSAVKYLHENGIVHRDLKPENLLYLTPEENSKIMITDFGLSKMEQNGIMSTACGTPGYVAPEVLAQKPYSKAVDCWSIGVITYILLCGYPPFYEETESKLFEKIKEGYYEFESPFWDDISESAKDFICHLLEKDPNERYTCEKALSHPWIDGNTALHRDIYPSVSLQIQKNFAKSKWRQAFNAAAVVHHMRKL
Experiment: STD-NMR fragment screening, CAMK1G
Type: binding
Conditions: 1 = hit, 0 = no hit
Procedure: All fragments were stored at −20°C as solids in argon flushed glass bottles. For NMR screening, fragments were weighed and dissolved in DMSO-d6 to a stock concentration of 300 mM. Mother plates were prepared with a 100 mM concentration. […] Fifteen of these compounds contain the same halogen twice. […] As fragment mixtures can lead to competitive effects between their fragments, it is not advised to use the quantification of peak mixtures for hit ranking.
Observable: CAMK1G (STD-NMR hit flag)

Answered examples (4):
compound="COc1ccc(I)cc1CNCCO [Fragment B02290112]" assay_system="CAMK1G (1-320) (Homo sapiens, UniProt Q96NX5)" observable="CAMK1G (STD-NMR hit flag)" val=0
compound="Oc1coc(O)c1Br [Fragment B02291100]" assay_system="CAMK1G (1-320) (Homo sapiens, UniProt Q96NX5)" observable="CAMK1G (STD-NMR hit flag)" val=0
compound="O=C(O)c1csc(Cl)n1 [Fragment B02291228]" assay_system="CAMK1G (1-320) (Homo sapiens, UniProt Q96NX5)" observable="CAMK1G (STD-NMR hit flag)" val=0
compound="O=C(O)c1ccc(Cl)o1 [Fragment B02290466]" assay_system="CAMK1G (1-320) (Homo sapiens, UniProt Q96NX5)" observable="CAMK1G (STD-NMR hit flag)" val=0

Prompt: Param readout= CAMK1G (STD-NMR hit flag); system= CAMK1G (1-320) (Homo sapiens, UniProt Q96NX5); entry= CCOC(Cn1cc(Cl)cn1)OCC [Fragment B02291225] ; returns value.
Completion: 0

Prompt: Param readout= CAMK1G (STD-NMR hit flag); system= CAMK1G (1-320) (Homo sapiens, UniProt Q96NX5); entry= Cc1nc(N)nc(Cl)c1Cl [Fragment B02291102] ; returns value.
Completion: 1

Prompt: Param readout= CAMK1G (STD-NMR hit flag); system= CAMK1G (1-320) (Homo sapiens, UniProt Q96NX5); entry= Clc1ncnc2[nH]ccc12 [Fragment B02291254] ; returns value.
Completion: 1

Prompt: Param readout= CAMK1G (STD-NMR hit flag); system= CAMK1G (1-320) (Homo sapiens, UniProt Q96NX5); entry= Nc1ncnc(C(=O)O)c1Cl [Fragment B02290472] ; returns value.
Completion: 0

Prompt: Param readout= CAMK1G (STD-NMR hit flag); system= CAMK1G (1-320) (Homo sapiens, UniProt Q96NX5); entry= Nc1cc(Cl)cc([N+](=O)[O-])c1O [Fragment B02291244] ; returns value.
Completion: 0

Prompt: Param readout= CAMK1G (STD-NMR hit flag); system= CAMK1G (1-320) (Homo sapiens, UniProt Q96NX5); entry= O=C(O)c1cccc(Cl)n1 [Fragment B02289597] ; returns value.
Completion: 0

Prompt: Param readout= CAMK1G (STD-NMR hit flag); system= CAMK1G (1-320) (Homo sapiens, UniProt Q96NX5); entry= O=C(O)c1nn(Cn2cccn2)cc1Cl [Fragment B02291154] ; returns value.
Completion: 0

Prompt: Param readout= CAMK1G (STD-NMR hit flag); system= CAMK1G (1-320) (Homo sapiens, UniProt Q96NX5); entry= N#Cc1n[nH]cc1Br [Fragment B02290464] ; returns value.
Completion: 1

Prompt: Param readout= CAMK1G (STD-NMR hit flag); system= CAMK1G (1-320) (Homo sapiens, UniProt Q96NX5); entry= O=c1ncc(Cl)c[nH]1 [Fragment B02297425] ; returns value.
Completion: 0

Prompt: Param readout= CAMK1G (STD-NMR hit flag); system= CAMK1G (1-320) (Homo sapiens, UniProt Q96NX5); entry= CN(N)c1ncc(C(F)(F)F)cc1Cl [Fragment B02290089] ; returns value.
Completion: 0

Prompt: Param readout= CAMK1G (STD-NMR hit flag); system= CAMK1G (1-320) (Homo sapiens, UniProt Q96NX5); entry= O=C(O)C(O)c1cccc(Cl)c1 (stereo not shown) [Fragment B02297417] ; returns value.
Completion: 0

Prompt: Param readout= CAMK1G (STD-NMR hit flag); system= CAMK1G (1-320) (Homo sapiens, UniProt Q96NX5); entry= CN1CCN(C(CN)c2ccccc2Cl)CC1 (stereo not shown) [Fragment B02290483] ; returns value.
Completion: 0

Prompt: Param readout= CAMK1G (STD-NMR hit flag); system= CAMK1G (1-320) (Homo sapiens, UniProt Q96NX5); entry= CCC(N)c1ccc(Cl)cc1 (stereo not shown) [Fragment B02291270] ; returns value.
Completion: 1
